- study_target: T1, recombinant human TL1A (human, UniProt O95150 71-251)
- T1 construct: The ELISA method says only 'recombinant TL1A' coated on plates; homotrimeric cytokine; also called TNFSF15; recombinant TL1A
- T1 chain: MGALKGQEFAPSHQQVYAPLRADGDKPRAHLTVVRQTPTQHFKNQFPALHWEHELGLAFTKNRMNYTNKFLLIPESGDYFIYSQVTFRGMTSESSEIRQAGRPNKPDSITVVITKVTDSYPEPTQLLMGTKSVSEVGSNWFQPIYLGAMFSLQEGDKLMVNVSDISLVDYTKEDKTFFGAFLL
- assay_comment: competition ELISA on coated recombinant TL1A; competitor biotinylated TL1A-0002
pIC50: −log10 of the molar value.
experimental_endpoint: pIC50

[[record]]
binder = "TL1A-0244 (antibody, V domains shown, IgG1 effector-minimized/kappa) VH: QVQLVQSGAEVKKPGASVKVSCKASGYDFTYYGISWVRQAPGQGLEWMGWISTYNDNTHYAQKLQGRVTMTTDTSTSTAYMELRSLRSDDTAVYYCARESYYGSGAFRGGMDVWGQGTTVTVSS VL: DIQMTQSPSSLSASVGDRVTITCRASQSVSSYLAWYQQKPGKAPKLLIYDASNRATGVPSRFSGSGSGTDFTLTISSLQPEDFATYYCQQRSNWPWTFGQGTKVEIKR"
value_measured = 7.75

[[record]]
binder = "TL1A-0270 (antibody, human IgG1, kappa, V domains shown, human IgG1 effector-function-minimized / human kappa) VH: QVQLVQSGAEVKKPGASVKVSCKASGYDFSYYGISWVRQAPGQGLEWMGWISTYNDNTHYAPSLQGRVTMTTDTSTSTAYMELRSLRSDDTAVYYCARESYYGSGAFRGGMDVWGQGTTVTVSS VL: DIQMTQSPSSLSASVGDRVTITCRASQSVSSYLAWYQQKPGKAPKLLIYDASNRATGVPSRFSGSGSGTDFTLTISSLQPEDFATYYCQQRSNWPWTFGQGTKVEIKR"
value_measured = 7.94

[[record]]
binder = "TL1A-0256 (antibody, human IgG1, kappa, V domains shown, human IgG1 effector-function-minimized / human kappa) VH: QVQLVQSGAEVKKPGASVKVSCKASGYDYTYYGISWVRQAPGQGLEWMGWISTYNDNTHYAPSLQGRVTMTTDTSTSTAYMELRSLRSDDTAVYYCARESYYGSGAFRGGMDVWGQGTTVTVSS VL: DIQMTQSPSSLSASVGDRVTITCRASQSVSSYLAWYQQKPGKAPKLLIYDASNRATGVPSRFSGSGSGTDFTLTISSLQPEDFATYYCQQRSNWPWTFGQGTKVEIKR"
value_measured = 7.94

[[record]]
binder = "TL1A-0189 (antibody, human IgG1, kappa, V domains shown, IgG1 effector-minimized/kappa) VH: QVQLVQSGAEVKKPGASVKVSCKASGYDFTYYGISWVRQAPGQGLEWMGWISTYNGNTHYARMLQGRVTMTTDTSTSTAYMELRSLRSDDTAVYYCARENYYGSGAYRGGMDVWGQGTTVTVSS VL: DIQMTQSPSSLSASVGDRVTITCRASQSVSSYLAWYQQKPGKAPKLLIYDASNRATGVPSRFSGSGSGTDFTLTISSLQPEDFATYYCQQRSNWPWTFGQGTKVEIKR"
value_measured = 8.42

[[record]]
binder = "TL1A-0304 (antibody, human IgG1, kappa, V domains shown, human IgG1 effector-function-minimized / human kappa) VH: QVQLVQSGAEVKKPGASVKVSCKASGYDFTYYGIGWVRQAPGQGLEWMGWISTYNTGTHYAQKLQGRVTMTTDTSTSTAYMELRSLRSDDTAVYYCARESYYGSGAFRGGMDVWGQGTTVTVSS VL: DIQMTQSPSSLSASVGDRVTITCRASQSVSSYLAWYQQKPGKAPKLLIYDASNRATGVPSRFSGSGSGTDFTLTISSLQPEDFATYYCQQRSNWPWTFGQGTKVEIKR"
value_measured = 7.83

